For reference, inhibitory effect on MERS-CoV (in words) measured on MERS-CoV:

Sample answers from the record:
CC(=O)c1c(NC(C)C)[nH]c2c(C)cc(C)cc2c1=O :: no inhibitory effects
CC(=O)c1c(N2CCOCC2)[nH]c2c(F)cc(F)cc2c1=O :: no inhibitory effect
CC(=O)c1c(N2CCCCC2)[nH]c2c(F)cc(F)cc2c1=O :: no inhibitory effect
COc1ccc(Nc2[nH]c3c(F)cc(F)cc3c(=O)c2C(C)=O)cc1 :: no inhibitory effects
CC(=O)c1c(NC(C)C)[nH]c2c(C(C)C)cccc2c1=O :: no inhibitory effects
COc1cccc(Nc2[nH]c3c(F)cc(F)cc3c(=O)c2C(C)=O)c1 :: no inhibitory effects

Turning to the following compound.
Data point: CCCCNc1[nH]c2c(F)cc(F)cc2c(=O)c1C(C)=O ; inhibitory effect on MERS-CoV (in words) = no inhibitory effect

----------
Assay notes: in vitro
Condition notes: African green monkey
Recorded metric: pIC50
# log scale: pIC50 equals minus log10 of the concentration in mol/L

Data point: CC(C)C(=O)c1c(Nc2ccc(F)c(F)c2F)[nH]c2c(F)cc(F)cc2c1=O ; pIC50 = 4.06

Entry source: paper PMC7126094
